Tested on: MDA-MB-468 breast
Assay: NCI-60 one-dose screen, 48 h (100 = growth as untreated, 0 = no growth, -100 = all killed)
Details: 10 µM unless noted
Compounds without any hit were thinned out: in the full panel of roughly 83,000, 20% have a hit.
endpoint.label: growth (%)
Supply the numeric figure in %, leaving out any unit text.

# molecule, result.unit, growth
measured = [
    ("CC(=O)OCCCCCNc1ccccc1", "%", 125),
    ("COc1cc2cc(Oc3ccc(NC(=O)Nc4ccc(Cl)c(C(F)(F)F)c4)cc3)c(C)nc2cc1OCCN1CCOCC1", "%", -13.5),
]

Name the reported growth value associated with the molecule COc1ccc(C2NC(=O)Nc3ccccc32)c(OC)c1 (stereo unspecified) 103

Which value of growth has been reported for NC1=C(/C(N)=N/O)C(c2ccccc2)c2ccc3ccccc3c2O1 (stereo unspecified) in the records? -1.49

I'd like to know its growth. The molecule in question is `Cn1cnc([N+](=O)[O-])c1/C=C1\Oc2ccc(Br)cc2C1=O` 80.9

* * *

Quick reference: growth of the listed items.
System: MDA-MB-468 breast
Experiment: NCI-60 one-dose screen, 48 h (100 = growth as untreated, 0 = no growth, -100 = all killed)
Conditions: 10 µM unless noted
This is part of a sample that, as a whole, favours compounds with a hit. Of some 83,000 tested, about 20% had one in any assay.
The reply should contain only the number, in %.

Use these answered entries as a reference point.
# compound, target.or.test.system, growth (%)
records = [
    ("N#Cc1ccc(OC(=O)Nc2c(Cl)cc(Cl)cc2Cl)cc1", "MDA-MB-468 breast", 97),
    ("Cc1ccc2nc(NC(=O)CSc3nc(-c4ccccc4)c(C#N)c4nnnn34)sc2c1", "MDA-MB-468 breast", 107),
    ("Cc1[nH]nc2c1C(c1cnn(C)c1)C(C#N)=C(N)O2 (configuration not stated)", "MDA-MB-468 breast", 92.4),
]

For `Cc1sc2c(c1C)c(=O)nc1c(-c3nc4ccccc4s3)n[nH]n12` , what is its reported growth? 101

Name the recorded growth for `CN(CCC#N)C(=O)Nc1ccccc1` . 109

Entry `COc1cc(NS(=O)(=O)C(C)C)cc(-c2cc(-c3ccc(N4CCNCC4)cc3)cnc2N)c1` : reported growth = ? 92.2

Could you tell me which growth is on file for `COc1ccc(C(=O)/C=C/c2cn(Cc3ccc(Cl)cc3)c3ccccc23)cc1` ? -28.2

For the compound `COc1ccc2nc3cc(Cl)ccc3c(N)c2c1` , what growth is on record? -88.9

Can you share its growth? I mean this compound: COc1cc2nc3cc([N+](=O)[O-])ccc3c(NCCNCC(C)O)c2cc1OC (configuration not stated) -45.6

Need growth of `CCN(CC)CCCCCCCNc1c2ccc(Cl)cc2nc2ccc(OC)cc12` , thanks. -86.6

Item `CC(C)c1ccc(C(=O)OC(=O)c2ccc(C(C)C)cc2)cc1` has what recorded growth? 110

Could you tell me which growth is on file for `Cc1nc2cc(Nc3nc(Cl)nc(Nc4ccc(F)cc4)n3)ccc2n1Cc1ccccc1` ? 76.2

Recorded growth for `COc1cccc(-c2nc3occn3c2-c2ccnc(NCCNS(=O)(=O)c3cccc4ccccc34)n2)c1` , please? 98.1

So what's the measured growth for this one? `OB(O)c1ccsc1-c1nc2ccc3[nH]ncc3c2c2c1CCCC2` 8.64

Endpoint output: growth of `O=C(NNC(=O)N1c2ccccc2C=Cc2ccccc21)c1ccccc1` . Value? 98.9

Which value of growth has been reported for O=C(NCCc1ccccc1)C1CCC(=O)N1Cc1ccc(Br)cc1 (configuration not stated) in the records? 108

* * *

Tested on: MDA-MB-468 breast
Test: NCI-60 one-dose screen, 48 h
Conditions: 10 µM unless noted
Experimental: Growth inhibition of the MDA-MB-468 human Breast tumor cell line is measured as a screen for anti-cancer activity. Cells are grown in 96 well plates and exposed to the test compound for 48 hours. Compounds are tested at a single concentration, which is 10^-5 M for most compounds. The reported endpoint is percent growth (GI% or GIPRCNT), where numbers from 0 - 100% represent growth inhibition, and numbers from -100% - 0 represent cell death. […]
About 83,000 compounds went through this panel and 20% of them were active in at least one assay; those are over-represented in the sample as a whole. Calls of active or inactive are those of the source. Rule for the calls: active = growth percent below 10; inactive = the rest.
Choose one outcome from this list and give only that: class 1 for active, class 0 for inactive

# compound, group.label
records = [
    ("O=Cc1cc2ccccc2nc1Oc1ccc(C(F)(F)F)cc1", "class 0"),
    ("C[C@]12CCc3nc(Nc4ccccc4)sc3C1=CC[C@@H]1[C@@H]2CC[C@]2(C)/C(=N/NC(N)=S)CC[C@@H]12", "class 0"),
]

Per the assay record, what outcome was assigned to `CCOc1ccccc1C(=O)/C=C/c1cc2ccccc2[nH]c1=O` ? class 1

Assay result, entry OC(c1cc2c(Cl)cc(Cl)cc2c2cc(C(F)(F)F)ccc12)C1CCCCN1 (stereo unspecified) — outcome? class 1

Record lookup: outcome of this test for `O=c1c2cnn(-c3ccccc3)c2n2c(CN3CCOCC3)nnc2n1-c1ccccc1` ? class 0

For this compound, state the assay outcome: CN1C2CCC1/C(=C\c1ccc(Cl)cc1)C1=C2[C@@H](c2ccc(Cl)cc2)C(C#N)=C(N)O1 (stereo partly specified) class 0

Which outcome was assigned to `CS(=O)(=O)Cc1cnc(C2OCCO2)s1` in this test? class 0

For CC(=O)OC[C@H]1O[C@@H](n2c(=O)cc(N)[nH]c2=O)C(OC(C)=O)[C@@H]1OC(C)=O (stereo partly specified) , what call appears in the results of this test? class 0

Hi, sorry to bother you, what did the test record for `COc1cc(NCCN(CC(C)C)C2CCCC2)c2ncccc2c1` ? class 1

What did the test return for `CN(C)CCCN(Cc1ccccc1O)C(=S)Nc1ccc(Cl)cc1` ? class 0

Recorded test call requested for `Cn1cnc(-c2cc3nccc(Oc4ccc(NC(=S)NC(=O)Cc5ccccc5)cc4F)c3s2)c1` class 0

What call does the record list for `C=CC(=O)Nc1cccc(C)c1Nc1cc(-c2cccnc2Cc2c(C)c(OC)cc(OC)c2C)ncn1` ? class 0

Entry CC1(C)c2ccccc2C(=O)C1(Br)Cc1ccccc1 (stereo unspecified) : call = ? class 0

Could you please tell me the result logged for `CC[C@H](Nc1ncnc2nc[nH]c12)c1nc2cccc(NCc3ccc(C(=O)NO)o3)c2c(=O)n1-c1ccccc1` in this assay? class 0

Field: outcome | Entry: `O=C(N/N=C\c1cc(Cl)ccc1O)c1ccncc1` class 0

Status in this test for `O=C1NC(=O)C(=Cc2cn(Cc3ccccn3)c3ccccc23)C(=O)N1` ? class 1

* * *

Tested on: MDA-MB-468 breast
Assay: NCI-60 one-dose screen, 48 h (100 = growth as untreated, 0 = no growth, -100 = all killed)
Details: 10 µM unless noted
Compounds without any hit were thinned out: in the full panel of roughly 83,000, 20% have a hit.
Using growth as the sorting value, the categories are bottom = under 20%, middle = from 20% up to 90%, top = 90% and over

Sample answers from the record:
# molecule, group.label
records = [
    ("O=C(/C=C/c1ccc(F)cc1)N1CCN(C(=O)/C=C/c2ccc(C(F)(F)F)cc2)CC1", "top"),
    ("c1ccc2c(N=NSc3ncnc4nc[nH]c34)c3ccccc3nc2c1", "bottom"),
    ("CCCN1CCN(c2ccc3nc(-c4ccc5nc(-c6ccc(C(F)(F)F)cc6)[nH]c5c4)[nH]c3c2)CC1", "bottom"),
]

Into which category would you place `COc1ccc(NC(=O)CSc2oc(-c3ccccc3)nc2S(=O)(=O)c2ccc(Cl)cc2)c(OC)c1` ? middle

The entry to classify is `CCCOC(=O)c1ccc2c(c1)[N+](=O)C(C(=O)c1ccccc1)=C(C(F)(F)F)[N+]2=O` ; which class holds it? bottom

Bin? `CN(C)CC/C=C1\c2ccccc2Sc2ccc(Cl)cc21` bottom

* * *

Test system: IGROV1 ovarian
Experiment: NCI-60 one-dose screen, 48 h
Details: 10 µM
This is part of a sample that, as a whole, favours compounds with a hit. Of some 83,000 tested, about 20% had one in any assay. Activity calls are given as the source filed them. How the source made its calls: active means growth percent below 10; inactive means the rest.
Hi! Could you answer with just one of these? active, inactive

Solved cases below.
# compound, group.label
records = [
    ("C#C[C@]1(O)CC[C@H]2[C@@H]3CC=C4c5sc(Nc6ccc(C(F)(F)F)cn6)nc5CC[C@]4(C)[C@H]3CC[C@@]21C", "active"),
    ("Cc1ccc2sc3c(c2c1)Oc1nc[nH]c(=O)c1C3c1cccc(F)c1 (centres undefined)", "inactive"),
    ("Cn1cc(-c2cc(N)n3nc(-c4cn(C)c5ccccc45)cc3n2)c2cc(F)ccc21", "active"),
]

Okay, now this compound:
Look up the recorded call for `COc1cc2oc(-c3cccc(C(=O)Nc4ccc(Cl)cc4)c3)cc(=O)c2c(OCCNC(=O)[C@@H](N)CO)c1OC` in this test. inactive

Cited source for all entries: PubChem BioAssay (NCI)
